From: patent US7846945B2

# targetOrSystem: Human sodium/glucose co-transporter type 2 (SGLT2) (Homo sapiens, UniProt P31639)
# Construct: HA
# Sequence (P31639 whole entry): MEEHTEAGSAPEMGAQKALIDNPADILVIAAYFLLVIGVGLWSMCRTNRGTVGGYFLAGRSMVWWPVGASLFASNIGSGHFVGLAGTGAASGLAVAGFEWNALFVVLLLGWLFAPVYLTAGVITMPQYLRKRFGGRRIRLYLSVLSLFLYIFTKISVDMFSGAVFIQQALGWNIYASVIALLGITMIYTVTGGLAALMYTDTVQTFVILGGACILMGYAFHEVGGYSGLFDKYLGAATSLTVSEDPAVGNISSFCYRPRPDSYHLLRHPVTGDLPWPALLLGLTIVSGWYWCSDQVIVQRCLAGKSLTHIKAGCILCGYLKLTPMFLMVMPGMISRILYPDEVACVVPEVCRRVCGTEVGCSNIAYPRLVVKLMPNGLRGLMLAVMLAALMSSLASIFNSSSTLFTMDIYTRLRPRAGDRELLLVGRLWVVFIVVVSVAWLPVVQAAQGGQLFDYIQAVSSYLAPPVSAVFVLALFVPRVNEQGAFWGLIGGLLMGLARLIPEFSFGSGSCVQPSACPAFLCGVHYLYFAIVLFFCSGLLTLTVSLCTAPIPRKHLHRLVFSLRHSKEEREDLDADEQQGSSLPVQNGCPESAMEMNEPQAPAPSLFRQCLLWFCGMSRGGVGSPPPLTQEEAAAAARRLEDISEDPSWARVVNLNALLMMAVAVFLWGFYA
# methodSummary: In vitro human SGLT2 inhibition assay (14C-AMG uptake)
# runConditions: HEK293 cells expressing human HA-SGLT2; potent = SGLT2 IC50 of less than about 500 nM; read-out: SGLT2 IC50 (potent SGLT2 inhibitor mark)
recordedMetric: IC50

>  <molecule>
COC1O[C@@H](c2ccc(Cl)c(Cc3ccc(OC4CCOCC4)cc3)c2)[C@H](O)[C@@H](O)[C@@H]1O (some centres unmarked)

>  <targetOrSystem>
Human sodium/glucose co-transporter type 2 (SGLT2) (Homo sapiens, UniProt P31639)

>  <recordedMetric>
IC50

>  <result>
< 500 nM

$$$$
>  <molecule>
COC1O[C@@H](c2ccc(Cl)c(Cc3ccc(OC(=S)N(C)C)cc3)c2)[C@H](O)[C@@H](O)[C@@H]1O (some centres unmarked)

>  <targetOrSystem>
Human sodium/glucose co-transporter type 2 (SGLT2) (Homo sapiens, UniProt P31639)

>  <recordedMetric>
IC50

>  <result>
< 500 nM

$$$$
>  <molecule>
CCOc1ccc(Cc2cc([C@@H]3OC(OCCOC)[C@@H](O)[C@H](O)[C@H]3O)ccc2Cl)cc1 (some centres unmarked)

>  <targetOrSystem>
Human sodium/glucose co-transporter type 2 (SGLT2) (Homo sapiens, UniProt P31639)

>  <recordedMetric>
IC50

>  <result>
< 500 nM

$$$$
>  <molecule>
C=CCNC(=O)N1C[C@@H](O)[C@H](O)[C@@H](O)[C@@H]1c1ccc(Cl)c(Cc2ccc(OCC)cc2)c1

>  <targetOrSystem>
Human sodium/glucose co-transporter type 2 (SGLT2) (Homo sapiens, UniProt P31639)

>  <recordedMetric>
IC50

>  <result>
< 500 nM

$$$$
>  <molecule>
COc1cc(Oc2ccc(Cc3cc([C@@H]4OC(OC)[C@@H](O)[C@H](O)[C@H]4O)ccc3Cl)cc2)nc(OC)n1 (some centres unmarked)

>  <targetOrSystem>
Human sodium/glucose co-transporter type 2 (SGLT2) (Homo sapiens, UniProt P31639)

>  <recordedMetric>
IC50

>  <result>
< 500 nM

$$$$

INPUT: Please give the measured IC50 for this molecule: CCOc1ccc(Cc2cc([C@@H]3O[C@H](SCC(N)=O)[C@@H](O)[C@H](O)[C@H]3O)ccc2Cl)cc1
OUTPUT: < 500 nM
